- Target System: T1, SGF29 tandem tudor domain (TTD) reader (human, UniProt Q96ES7 115-293)
- T1 construct: SGF29, human, tandem tudor domain; also called SGF29TTD
- T1 sequence: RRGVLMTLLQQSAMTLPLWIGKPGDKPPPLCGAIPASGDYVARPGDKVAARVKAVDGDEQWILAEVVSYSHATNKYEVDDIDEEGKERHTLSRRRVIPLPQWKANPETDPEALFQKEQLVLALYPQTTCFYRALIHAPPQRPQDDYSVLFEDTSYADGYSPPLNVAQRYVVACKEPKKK
- Protocol Summary: ITC; 19 injections of histone peptide (0.3–1.2 mM) into reader protein (22–100 µM), 298.15 K, same buffer as used in size exclusion chromatography, one-site fit, 3–5 repeats
- Test Conditions: both partners purified
Ends that are not written are not given here.
Attribute: Kd
Metric: Kd (µM)

ARTCQTARKS (not fully specified (residue 4), histone H3, residues 1-10, printed as ART(Kme3/KCme3)QTARKS; position 4 is a cysteine alkylated to trimethylthialysine; The letter C at position 4 stands for the alkylated cysteine (trimethylthialysine), not a free cysteine; also called 1–10 H3KC4me3) [10-mer histone H3 peptide bearing trimethylthialysine at position 4 (H3KC4me3)]    6.1
ARTKQTARKS (trimethyllysine (Kme3) at position 4, histone H3, residues 1-10, printed as ART(Kme3/KCme3)QTARKS; also called 1–10 H3K4me3; source: synthetic peptide (solid-phase peptide synthesis, preparative HPLC)) [10-mer histone H3 peptide bearing trimethyllysine at position 4 (H3K4me3)]    2.6
